From: the array DNA melting data of Ke et al. (doi:10.1101/2024.01.08.574731)

ASSAY_PROCEDURE: folding enthalpy; higher = less favourable; fluorescence melt of hairpins on a sequencing array, two-state fit
MEASUREMENT_CONDITIONS: sodium 0.088 M
Criterion: folding enthalpy meeting or surpassing -30 kcal/mol. Met: criterion met. Not met: criterion not met.

Use the examples below as a reference point.
• GCATAGCGAAAGCGAGGC ((.(.((....)).).)) = criterion met
• GATAGCGAAAGCTTAATC ((((((....)))..))) = criterion met
• CGTTTCGGAAACGATACG (((.(((....))).))) = criterion not met
• GATCCCCGTTGGGATC ((((((....)))))) = criterion not met
• CGGTCGGAAACGAAACCG ((((((....)))..))) = criterion met
• GATCTATCTCTAGATC ((((((....)))))) = criterion met

// query hey, is folding enthalpy for this one >= -30 kcal/mol? GGAGGAGGAAACTTCTCC ((((.((....)).))))
// result criterion not met

// query hey, is folding enthalpy for this one >= -30 kcal/mol? GCATTTGGAAACAAATAC (.(((((....))))).)
// result criterion met

// query hey, is folding enthalpy for this one >= -30 kcal/mol? GATCTTTTTGAAGATC ((((((....))))))
// result criterion not met

// query hey, is folding enthalpy for this one >= -30 kcal/mol? CGGTCGGAAACGATCCG ((((((....))).)))
// result criterion not met

// query hey, is folding enthalpy for this one >= -30 kcal/mol? GGACCTGGAAACAAGTCC ((((.((....)).))))
// result criterion met

###

ASSAY_PROCEDURE: folding enthalpy; higher = less favourable; fluorescence melt of hairpins on a sequencing array, two-state fit
MEASUREMENT_CONDITIONS: sodium 0.088 M
Each entry below carries its reported folding enthalpy.

• GGAGCCGAAAGGCATCC ((((((....))).))) = -14.2 kcal/mol
• GTCAGTGCGAAAGCAGAC (((..(((....)))))) = -14.4 kcal/mol

// query # query: folding enthalpy of entry GATCAAAGTATTGATC ((((((....))))))
// result -29.8 kcal/mol

// query # query: folding enthalpy of entry GATCGCGAAAGCGAGATC ((((((....)))..)))
// result -13.8 kcal/mol

// query # query: folding enthalpy of entry GAGCGACGAAAGTCCCTC (((.(((....))).)))
// result -16.1 kcal/mol

// query # query: folding enthalpy of entry GATCCTCTGCAGGATC ((((((....))))))
// result -37 kcal/mol

// query # query: folding enthalpy of entry GACTAGCGAAAGCTGGTC (((.(((....))).)))
// result -34.1 kcal/mol

// query # query: folding enthalpy of entry GAGATCGCGAAAGCGCTC (((..(((....))))))
// result -8.57 kcal/mol

// query # query: folding enthalpy of entry GCTGTGCGAAAGCAGGGC ((..(((....)))..))
// result -21.1 kcal/mol

###

ASSAY_PROCEDURE: folding enthalpy; higher = less favourable; fluorescence melt of hairpins on a sequencing array, two-state fit
MEASUREMENT_CONDITIONS: sodium 0.088 M
MEASUREMENT_TYPE: folding enthalpy (kcal/mol)
Field format: number, assumed kcal/mol, no unit text.

• GGATATGGAAACGTATCC (((((.(....).))))) = -35.5
• GAGGGTGGAAACGTCCTC ((((..(....)..)))) = -23.9
• GCGGGGCGCCGC ((((....)))) = -14.7
• GCTAGGCGAAAGCCTGGC ((.((((....)))).)) = -21.1

// query # query: folding enthalpy of entry GTGGTTGGAAACAGCTAC ((.(.((....)).).))
// result -23.3

// query # query: folding enthalpy of entry GGATGCGGAAACGTATCC ((((.((....)).))))
// result -46.7

###

ASSAY_PROCEDURE: melting temperature; fluorescence melt of hairpins on a sequencing array, two-state fit, raised by 9.35 °C to match UV melts
MEASUREMENT_CONDITIONS: sodium 0.088 M
Criterion: Tm meeting or surpassing 50 °C. Met: True. Not met: False.

Use the examples below as a reference point.
- GAGTCAGCGAAAGCTCTC (((..(((....)))))): False
- GCGCGCGAAAGCGCTCGC ((((((....)))..))): True
- GAGGTGAAAACCTC (((((....))))): True

Let's switch to this sequence now.
// query hey, is Tm for this one >= 50 °C? GTTGCCCGAAAGGGGAAC (((.(((....))).)))
// result True

###

ASSAY_PROCEDURE: melting temperature; fluorescence melt of hairpins on a sequencing array, two-state fit, raised by 9.35 °C to match UV melts
MEASUREMENT_CONDITIONS: sodium 0.088 M
MEASUREMENT_TYPE: Tm (°C)
Field format: number, assumed °C, no unit text.

Reference set, count: 3
* GTTCTCGAAAGAGAAAAC ((((((....)))..))) | 32.6
* GACGACGAAAGTCTGGTC ((((((....)))..))) | 41.2
* GATCCCCCTCGGGATC ((((((....)))))) | 58.2

// query # query: Tm of entry GTTACTCGAAAGAGCAAC (((.(((....))).)))
// result 43.3

// query # query: Tm of entry GCAGGAGGAAACTCCTAC (.(((((....))))).)
// result 37.8

// query # query: Tm of entry GCAACGCGAAAGCCTGGC ((.(.((....)).).))
// result 30.8

// query # query: Tm of entry GCTATGCGAAAGCGTGGC ((.(.((....)).).))
// result 53.5

// query # query: Tm of entry GATCCTGTCAAGGATC ((((((....))))))
// result 64.9

// query # query: Tm of entry GGTTCCGAAAGGAATACC ((((((....)))..)))
// result 41.5

// query # query: Tm of entry GGATACACGAAAGTGTCC (((..(((....))))))
// result 35.9

// query # query: Tm of entry GTCCACGGAAACACGGAC ((((..(....)..))))
// result 37.2

// query # query: Tm of entry GCTATGCGAAAGCCTAGC ((((.((....)).))))
// result 52.4

###

Each entry below carries its reported folding enthalpy.
ASSAY_PROCEDURE: folding enthalpy; higher = less favourable; fluorescence melt of hairpins on a sequencing array, two-state fit
MEASUREMENT_CONDITIONS: sodium 0.088 M
Field format: number, assumed kcal/mol, no unit text.

// query # query: folding enthalpy of entry GTGTATACGAAAGTACAC (((..(((....))))))
// result -23.2

// query # query: folding enthalpy of entry GTCGAGCGAAAGCTTGAC (((.(((....))).)))
// result -35.4

// query # query: folding enthalpy of entry GAATGGGCGAAAGCCTTC (((..(((....))))))
// result -6.79

// query # query: folding enthalpy of entry GGTGACGAAAGTCCTACC ((((((....)))..)))
// result -13.8

// query # query: folding enthalpy of entry GACAAGGGAAACCTCGTC (((.(((....))).)))
// result -22.6

// query # query: folding enthalpy of entry GTAGGTCGAAAGACTAC (((.(((....))))))
// result -17.6

// query # query: folding enthalpy of entry GACGCTGGAAACAACGTC ((((.((....)).))))
// result -39.4

// query # query: folding enthalpy of entry GCGGTGCGAAAGCTACGC (((..((....))..)))
// result -33.5

// query # query: folding enthalpy of entry GTGGTAGGAAACTGTCAC (((..((....))..)))
// result -17.3

// query # query: folding enthalpy of entry GACAAACGAAAGTTCGTC (((.(((....))).)))
// result -25.2

// query # query: folding enthalpy of entry GCCCGTCGAAAGACAGGC (((.(((....))).)))
// result -39

// query # query: folding enthalpy of entry GCGTCCGAAAGGAGTCGC ((((((....)))..)))
// result -22.9

###

ASSAY_PROCEDURE: melting temperature; fluorescence melt of hairpins on a sequencing array, two-state fit, raised by 9.35 °C to match UV melts
MEASUREMENT_CONDITIONS: sodium 0.088 M
Each entry below carries its reported Tm.

Reference set, count: 5
• GTCATAGGAAACTGTGAC ((((.((....)).)))) = 46.4 °C
• GTTGCCCGAAAGGGAAC (((.(((....)))))) = 47.6 °C
• GCGAGGCCTCGC ((((....)))) = 62.8 °C
• GCGACGTTCGC ((((...)))) = 48 °C
• GAAGGCGAAAGCCTCTTC ((((((....)))..))) = 54.5 °C

// query # query: Tm of entry GATCGCCAGGCGATC ((((((...))))))
// result 67.1 °C

// query # query: Tm of entry GGTTACCGAAAGGTCACC (((.(((....))).)))
// result 49.1 °C
